B1: VH:VL chains; a variant is named by its letters at X, in order (parent)
chain 1: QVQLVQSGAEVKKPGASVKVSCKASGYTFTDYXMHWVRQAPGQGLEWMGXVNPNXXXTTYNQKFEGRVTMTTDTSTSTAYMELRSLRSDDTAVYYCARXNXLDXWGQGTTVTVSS
chain 2: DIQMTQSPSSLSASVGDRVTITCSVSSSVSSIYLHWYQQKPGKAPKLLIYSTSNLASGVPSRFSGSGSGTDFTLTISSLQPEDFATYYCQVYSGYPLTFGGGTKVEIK

# Variants of: B1
# assay notes: yeast display scFab, FACS + sequencing
assay readout: non-specific binding call

In the examples that follow, each entry is paired with its recorded non-specific binding call.
[
  {
    "mutation key": "VGARNSGV",
    "experimental value": "no binding"
  },
  {
    "mutation key": "YKGKGAGS",
    "experimental value": "binds"
  },
  {
    "mutation key": "DTGGDDGF",
    "experimental value": "no binding"
  },
  {
    "mutation key": "FTKGSAGY",
    "experimental value": "binds"
  },
  {
    "mutation key": "DTKAASSS",
    "experimental value": "no binding"
  }
]

Consider the variant shown here: DARGGAVY What is its recorded non-specific binding call?
no binding

Consider the variant shown here: YRAKGALF What is its recorded non-specific binding call?
binds

Consider the variant shown here: VEEEGDVA What is its recorded non-specific binding call?
no binding

Consider the variant shown here: DEGTGALA What is its recorded non-specific binding call?
no binding

Consider the variant shown here: DEGRGDGV What is its recorded non-specific binding call?
no binding

Consider the variant shown here: VRARGAWF What is its recorded non-specific binding call?
binds

Values were extracted from the emibetuzumab library of Makowski et al. (2022).
